# tgt: IL-17A (agonist in the IL-17RA/IL17RC dimerization assay) (UniProt Q16552 24-155)
# Sequence (Q16552 24-155 limits assumed): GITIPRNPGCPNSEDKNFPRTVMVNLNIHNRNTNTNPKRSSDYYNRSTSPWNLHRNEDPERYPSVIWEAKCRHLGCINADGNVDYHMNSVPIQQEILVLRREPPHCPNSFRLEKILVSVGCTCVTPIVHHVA
# procedure.text: cell-based or functional assay
value.type: IC50 in IL-17RA/IL7RC dimerization assay

{"columns": ["binder", "IC50 in IL-17RA/IL7RC dimerization assay"],
 "data": [
  ["Ac-VHVTIPADLWEFVRR-NH2 [peptide of SEQ ID NO: 120]", "< 500 nM"],
  ["Ac-GGTWWTEWSQVMVTIPADLYEWIEE-NH2 [peptide of SEQ ID NO: 32]", "< 1000 nM"],
  ["Ac-IHVQIPADLWDWINK-NH2 [peptide of SEQ ID NO: 178]", "< 10000 nM"]
]}

Consider now this further binder.
Return reported IC50 in IL-17RA/IL7RC dimerization assay; argument: Ac-IHVTIPADLWDWVEE-NH2 [peptide of SEQ ID NO: 15]
< 400 nM
